All values here come from patent US20220073643A1.

Reported EC50 values are given for each entry in this list.
test_system: T1, human Claudin18.2 (human)
T1 construct: also called CLDN18.2
experiment: cell ELISA, Claudin18.2-expressing HEK293T cells

binder | quantity_unit | EC50
413C12F8 (antibody, V domains shown, mouse hybridoma mAb) VH: DVQLVESGGGLVQPGGSRKLSCAASGFTFSGFGVHWIRQTPEKGLEWVAYIGSGSRPIYYADTVKGRFTISRDNPKNTLFLQMTSLRSEDTAMYFCARFYYGNSFDHWGQGTLVTVSA VL: DIVMTQSPSFLTVTAGEKVTMNCRSSQSLLNSGNQKNYLTWYQQRPGQPPKLLIYWASTRESGVPDRFTGSGSGTDFTLTISSVQAEDLALYYCQNAYSFPLTFGAGTKLELK | nM | 3.55
248E6A7 (antibody, V domains shown, mouse hybridoma mAb) VH: QAYLQQSGAELVRSGASVKMSCRASGYTFTSHNMHWVKQTPGQGLEWIGYIYPGNGNTYYNQKFKVKATLTADTSSNTAYMQINSLTSEDSAVYFCVRDYYGNSFVYWGQGTLVTVSA VL: DVVMTQSPSSLTEKTGEKVTMTCKSSQSLLNSGNQKNYLAWYQQKPGQPPKLLIYWASTRESGVPDRFIGSGSGTDFTLTISSLQTEDLAVYYCQNNYMYPFTFGAGTKLELK | nM | 0.396
